Experimental system: human ERβ LBD (Homo sapiens, UniProt Q92731)
Sequence (Q92731 264-498 limits assumed): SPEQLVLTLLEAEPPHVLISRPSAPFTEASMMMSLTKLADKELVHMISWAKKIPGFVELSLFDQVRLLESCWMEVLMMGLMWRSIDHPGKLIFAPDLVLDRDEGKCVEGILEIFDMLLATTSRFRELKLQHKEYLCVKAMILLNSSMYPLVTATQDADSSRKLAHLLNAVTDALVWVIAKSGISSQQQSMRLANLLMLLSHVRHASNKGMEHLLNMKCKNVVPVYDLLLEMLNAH
Protocol text: Competitive fluorescence polarization binding assay, ERβ
Condition parameters: IC50 estradiol/IC50 compound × 100, estradiol = 100%
Property label: RBA ERβ (%)
Give a bare numeral; the unit % is implied.

Reported RBA ERβ of Nc1ccc(C2=C(c3ccc(O)cc3)C3OC2CC3S(=O)(=O)N(CC(F)(F)F)c2ccc(O)cc2)cc1 (stereo not shown) [Compound 29l] : 2.35

Reported RBA ERβ of C=CC(=O)Nc1ccc(C2=C(c3ccc(O)cc3)C3OC2CC3S(=O)(=O)N(CC(F)(F)F)c2ccc(O)cc2)cc1 (stereo not shown) [Compound 29a] : 6.74

Reported RBA ERβ of O=C(CBr)Nc1ccc(OS(=O)(=O)C2CC3OC2C(c2ccc(O)cc2)=C3c2ccc(O)cc2)cc1 (stereo not shown) [Compound 26f] : 3.86

Reported RBA ERβ of O=C(CCl)Nc1ccc(C2=C(c3ccc(O)cc3)C3CC(S(=O)(=O)Oc4ccccc4)C2O3)cc1 (stereo not shown) [Compound 28d] : 0.92

Reported RBA ERβ of O=C(CCl)Nc1ccc(OS(=O)(=O)C2CC3OC2C(c2ccc(O)cc2)=C3c2ccc(O)cc2)cc1 (stereo not shown) [Compound 26e] : 0.55

Reported RBA ERβ of CC(C)=CC(=O)Nc1ccc(C2=C(c3ccc(O)cc3)C3CC(S(=O)(=O)Oc4ccc(O)cc4)C2O3)cc1 (stereo not shown) [Compound 28f] : 3.29

Reported RBA ERβ of CC(C)=CC(=O)Nc1ccc(C2=C(c3ccc(O)cc3)C3OC2CC3S(=O)(=O)N(CC(F)(F)F)c2cccc(O)c2)cc1 (stereo not shown) [Compound 29h] : 0.44

# credit: paper PMC10692362
